Source listed as PubChem BioAssay (NCI).

- Method Notes: NCI Yeast Anticancer Drug Screen. Data for the mlh1 strain (AID 171);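 further: 0% = growth of vehicle-treated control cultures of the same strain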
- Condition Parameters: S. cerevisiae mlh1 strain growth inhibition; at 3.7 µM; stronger effect = higher value
About 79,000 compounds went through this panel and 15% of them were active in at least one assay; those are over-represented in the sample as a whole. Calls of active or inactive are those of the source. No stated cut-off is given here; in the data, active means growth inhibition above about 70%; inactive means the rest.
Assign growth inhibition to each entry below.

Some entries whose results are on file:
COC(=O)NC1C(C)OC(OC2C/C=C(/C)C3C=CC4C(OC5CC(OC6CC(O)C(OC7CC(O)C(OC)C(C)O7)C(C)O6)C(O)C(C)O5)C(C)CC(C)C4C3(C)/C(O)=C3\C(=O)OC4(CC(C)C(CO)=CC4/C=C\2C)C3=O)CC1(C)[N+](=O)[O-] (stereo unspecified) ... 5% (inactive)
Cc1cc(N(CCOS(C)(=O)=O)CCOS(C)(=O)=O)ccc1C=Nc1ccc(-c2csc(-c3ccccc3)n2)c(Cl)c1 ... 25% (inactive)
O=C(COC(=O)c1ccccc1)c1ccc(Br)cc1 ... 17% (inactive)
CCCCCCC(O)CNCc1ccnc2ccc(OC)cc12 (stereo unspecified) ... 9% (inactive)

Below are 3 compounds. Give each one its growth inhibition.
1. NC(=O)C(=O)NNc1ccccc1
2. Cc1cccc(C(C)(C)C)c1NC(=O)C(C#N)C1=C(Cl)C(=O)c2ccccc2C1=O (stereo unspecified)
3. CCCC(=O)Oc1c(C)cc([N+](=O)[O-])cc1[N+](=O)[O-]

Output:
["5% (inactive)", "22% (inactive)", "12% (inactive)"]

Below are 2 compounds. Give each one its growth inhibition.
1. O=[N+]([O-])c1ccc(N/N=C/Cc2ccccc2)c([N+](=O)[O-])c1
2. O=C(NCCCNCCN1C(=O)c2cccc3cc([N+](=O)[O-])cc(c23)C1=O)c1cc(-c2ccccc2)nc2ccccc12

Output:
1. -5% (inactive)
2. 1% (inactive)

Below are 4 compounds. Give each one its growth inhibition.
1. CC(=O)Nc1ccc2c(c1)-c1ccccc1C2=O
2. CC(=O)SC(C[N+](=O)[O-])c1ccccc1 (stereo unspecified)
3. CCCCOP(=O)(CCCP(=O)(OCCCC)OCCCC)OCCCC
4. O=[N+]([O-])c1cc(S(=O)(=O)Nc2ccccc2)ccc1Nc1ccccc1

Output:
["-2% (inactive)", "11% (inactive)", "-2% (inactive)", "-15% (inactive)"]

Below are 2 compounds. Give each one its growth inhibition.
1. CC(NCCN(C)C)C1CCC2C3CCc4cc(O)ccc4C3CCC12C (stereo unspecified)
2. O=c1nc2n(Cc3ccccc3)c3ccccc3nc-2c(=O)[nH]1

Output:
4% (inactive)
3% (inactive)
